assay.system: A2BAR (Homo sapiens, UniProt P29275)
Construct: expressed in transfected cells; host or cells: HEK-293 T cells permanently expressing pRK5-A2BAR^SNAP
Sequence (P29275 whole entry): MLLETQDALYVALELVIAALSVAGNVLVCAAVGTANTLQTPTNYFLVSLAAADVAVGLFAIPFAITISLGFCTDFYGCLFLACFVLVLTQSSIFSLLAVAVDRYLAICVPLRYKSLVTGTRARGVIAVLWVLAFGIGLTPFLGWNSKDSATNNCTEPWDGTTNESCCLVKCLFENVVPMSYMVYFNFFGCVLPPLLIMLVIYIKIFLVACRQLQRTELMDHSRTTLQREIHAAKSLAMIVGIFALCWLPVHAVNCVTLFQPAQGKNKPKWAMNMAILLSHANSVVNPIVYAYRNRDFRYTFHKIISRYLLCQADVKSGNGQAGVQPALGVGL
assay: cAMP accumulation assay in HEK-293 cells permanently expressing A2BAR-SNAP
Type: cell-based
condition.parameters: read-out: KB (hA2B)
Overview of reported Kb across a group of molecules:
metric: Kb (nM)

{"molecule": "CC1=C(C(=O)OC(C)C)C(c2ccco2)n2c(nc3cc(F)ccc32)N1 (stereo not shown) [16b]", "unit.text": "nM", "numeric.value": 0.8}
{"molecule": "CC1=C(C(=O)OC(C)C)C(c2ccco2)n2c(nc3cc(Cl)ccc32)N1 (stereo not shown) [16j]", "unit.text": "nM", "numeric.value": 0.6}
{"molecule": "CCOC(=O)C1=C(C)Nc2nc3cc(Br)ccc3n2C1c1ccoc1 (stereo not shown) [16s]", "unit.text": "nM", "numeric.value": 1.5}
{"molecule": "CC1=C(C(=O)OC(C)C)C(c2ccco2)n2c(nc3cc(Br)ccc32)N1 (stereo not shown) [16r]", "unit.text": "nM", "numeric.value": 1.7}
